Give IC50 for every item shown.
- target or system: BRD4 Bromodomain 2 (BRD4 BD2) (Homo sapiens)
- Construct: 333-460 were cloned, expressed, and purified to homogeneity
- measurement description: AlphaScreen binding assay, BRD4 BD2
- applied conditions: His-tagged BRD4 BD2 100 nM, biotinylated H4 (1-21) K5/8/12/16 tetra-acetylated peptide 100 nM, compounds listed under IC50 range headings

Param item: COC(=O)N1c2ccc(-c3cnn(C4CCNCC4)c3)c(Oc3ccccc3Cl)c2CC[C@@H]1C [I-160] ; param system: BRD4 Bromodomain 2 (BRD4 BD2) (Homo sapiens); output IC50: < 50 nM

Param item: CCN1CC(Oc2c(-c3cnn(C4CC4)c3)ccc3c2CC[C@H](C)N3C(=O)OC)C1 [I-251] ; param system: BRD4 Bromodomain 2 (BRD4 BD2) (Homo sapiens); output IC50: 50 to 500 nM

Param item: COC(=O)N1c2ccc(-c3cnn(C4CC4)c3)c(OC(C)(C)C(N)=O)c2CC[C@@H]1C [I-18] ; param system: BRD4 Bromodomain 2 (BRD4 BD2) (Homo sapiens); output IC50: 50 to 500 nM

Param item: CC(=O)N1c2ccc(-c3cnn(C4CC4)c3)c(OCC(=O)N3CCC3)c2CC[C@@H]1C [I-7] ; param system: BRD4 Bromodomain 2 (BRD4 BD2) (Homo sapiens); output IC50: 50 to 500 nM

----------
- target or system: BRD4 Bromodomain 2 (BRD4 BD2) (Homo sapiens)
- Construct: 333-460 were cloned, expressed, and purified to homogeneity
- measurement description: AlphaScreen binding assay, BRD4 BD2
- applied conditions: His-tagged BRD4 BD2 100 nM, biotinylated H4 (1-21) K5/8/12/16 tetra-acetylated peptide 100 nM, compounds listed under IC50 range headings
property name: IC50

The compound identified as CC(=O)N1c2ccc(-c3cnn(C4CC4)c3)c(OCC3CCCCC3)c2CC[C@@H]1C [I-402] registered its IC50 at 50 to 500 nM

The compound identified as CC(=O)N1c2ccc(-c3cnn(C4CC4)c3)c(OCCN3CCCC3=O)c2CC[C@@H]1C [I-42] registered its IC50 at 50 to 500 nM

The compound identified as COC(=O)N1c2ccc(-c3cnn(CC(C)(C)O)c3)c(Oc3ncc(C(F)(F)F)cn3)c2CC[C@@H]1C [I-579] registered its IC50 at 50 to 500 nM

The compound identified as COC(=O)N1c2ccc(-c3cnn(C4CC4)c3)c(Oc3ccccc3)c2CCC1C (stereo not drawn) [I-599] registered its IC50 at 50 to 500 nM

The compound identified as COC(=O)N1c2ccc(-c3cnn(C4CC4)c3)c(Oc3ncccc3C(F)(F)F)c2CC[C@@H]1C [I-565] registered its IC50 at 50 to 500 nM

The compound identified as COC(=O)N1c2ccc(-c3cnn(CCS(C)(=O)=O)c3)c(Oc3ncccc3C(N)=O)c2CC[C@@H]1C [I-586] registered its IC50 at 50 to 500 nM

The compound identified as COC(=O)N1c2ccc(-c3cnn(CCS(C)(=O)=O)c3)c(Oc3ncc(F)cn3)c2CC[C@@H]1C [I-574] registered its IC50 at 50 to 500 nM

The compound identified as C[C@H]1CCc2c(ccc(-c3cnn(C4CCNCC4)c3)c2Oc2ncccc2C#N)N1C(=O)C1CC1 [I-540] registered its IC50 at 50 to 500 nM

The compound identified as C[C@H]1CCc2c(ccc(-c3cn(C)nn3)c2OC2CCC2)N1C(=O)C1CC1 [I-53] registered its IC50 at < 50 nM

The compound identified as CC(=O)N1c2ccc(-c3cnn(CCO)c3)c(OC[C@H]3CCNC3)c2CC[C@@H]1C [I-440] registered its IC50 at 50 to 500 nM

The compound identified as CC(=O)N1c2ccc(-c3cnn(C4CC4)c3)c(OCS(N)(=O)=O)c2CC[C@@H]1C [I-45] registered its IC50 at ≥ 500 nM

The compound identified as CC(=O)N1c2ccc(-c3cnn(C4CC4)c3)c(OC3CCCC3)c2CC[C@@H]1C [I-396] registered its IC50 at < 50 nM

The compound identified as COC(=O)N1c2ccc(-c3cnn(C4CCNCC4)c3)c(OCC(=O)N(C)C)c2CC[C@@H]1C [I-454] registered its IC50 at 50 to 500 nM

The compound identified as CC(=O)N1c2ccc(-c3cnn(CCS(C)(=O)=O)c3)c(OCCN(C)S(C)(=O)=O)c2CC[C@@H]1C [I-436] registered its IC50 at 50 to 500 nM

The compound identified as COC(=O)N1c2ccc(-c3cnn(C4CC4)c3)c(OC3CNC3)c2CC[C@@H]1C [I-59] registered its IC50 at ≥ 500 nM

The compound identified as CC(=O)N1c2ccc(-c3cnn(CCO)c3)c(Oc3nc(C)cc(C)n3)c2CC[C@@H]1C [I-544] registered its IC50 at 50 to 500 nM

The compound identified as CCCOc1c(-c2cnn(C3CCNCC3)c2)ccc2c1CC[C@H](C)N2C(=O)OC [I-107] registered its IC50 at 50 to 500 nM

The compound identified as CC(=O)N1c2ccc(-c3cnn(C4CCNCC4)c3)c(OCC(C)C)c2CC[C@@H]1C [I-423] registered its IC50 at < 50 nM

The compound identified as CC(=O)N1c2ccc(-c3cnn(C4CC4)c3)c(Oc3ccc(C#N)nn3)c2CC[C@@H]1C [I-91] registered its IC50 at 50 to 500 nM

The compound identified as COC(=O)N1c2ccc(-c3cnn([C@@H]4CCNC[C@@H]4F)c3)c(OC3CCC3)c2CC[C@@H]1C [I-361] registered its IC50 at < 50 nM

The compound identified as C[C@H]1CCc2c(ccc(-c3cnn(C)c3)c2Oc2ccccc2)N1C(=O)C1CC1 [I-224] registered its IC50 at < 50 nM

The compound identified as CC(=O)N1c2ccc(-c3cnn(C4CCNCC4)c3)c(OCC(=O)N(C)C)c2CC[C@@H]1C [I-419] registered its IC50 at 50 to 500 nM

The compound identified as CC(=O)N1c2ccc(-c3cnn(C4CC4)c3)c(Oc3cccc(C)n3)c2CC[C@@H]1C [I-256] registered its IC50 at < 50 nM

The compound identified as COC(=O)N1c2ccc(-c3cnn(C4CCNCC4)c3)c(OCCN(C)S(C)(=O)=O)c2CC[C@@H]1C [I-474] registered its IC50 at 50 to 500 nM

The compound identified as CC(=O)N1c2ccc(-c3cnn(C4CC4)c3)c(OC3CCC3)c2CC[C@@H]1C [I-389] registered its IC50 at < 50 nM

The compound identified as COC(=O)N1c2ccc(-c3cnn(C4CCN(C)CC4)c3)c(OC3CCC3)c2CC[C@@H]1C [I-285] registered its IC50 at < 50 nM

The compound identified as CCCOc1c(-c2ccc(C(=O)N3CCOCC3)cc2)ccc2c1CC[C@H](C)N2C(C)=O [I-496] registered its IC50 at 50 to 500 nM

The compound identified as CC(=O)N1c2ccc(-c3cnn(C4CC4)c3)c(OCC3(CO)COC3)c2CC[C@@H]1C [I-49] registered its IC50 at < 50 nM

The compound identified as COC(=O)N1c2ccc(-c3cnn(CC(C)(C)O)c3)c(Oc3ncccc3C(F)(F)F)c2CC[C@@H]1C [I-563] registered its IC50 at < 50 nM

The compound identified as CC(=O)N1c2ccc(-c3ccc4c(c3)CCN4S(C)(=O)=O)c(OCC(=O)N(C)C)c2CC[C@@H]1C [I-501] registered its IC50 at 50 to 500 nM

The compound identified as COC(=O)N1c2ccc(-c3cnn(CCO)c3)c(Oc3ccc(C(F)(F)F)cn3)c2CC[C@@H]1C [I-556] registered its IC50 at 50 to 500 nM

The compound identified as COC(=O)N1c2ccc(-c3cnn([C@H]4CCNC[C@@H]4F)c3)c(Oc3ccc(F)cc3)c2CC[C@@H]1C [I-364] registered its IC50 at < 50 nM

The compound identified as COC(=O)N1c2ccc(-c3cnn(C4CCN(C)CC4)c3)c(Oc3ccc(Cl)cc3C#N)c2CC[C@@H]1C [I-245] registered its IC50 at < 50 nM
